Measured values drawn from patent US20190338026A1 for this set.

# TARGET_OR_SYSTEM: T1, human LAIR1 extracellular domain (ECD) protein with 6 HIS tag at the C-terminus (human, UniProt Q6GTX8 22-165)
# T1 construct: Produced recombinantly in HEK293 cells; the whole entry is named here; also called LAIR1 ECD; LAIR1-ECD
# T1 chain: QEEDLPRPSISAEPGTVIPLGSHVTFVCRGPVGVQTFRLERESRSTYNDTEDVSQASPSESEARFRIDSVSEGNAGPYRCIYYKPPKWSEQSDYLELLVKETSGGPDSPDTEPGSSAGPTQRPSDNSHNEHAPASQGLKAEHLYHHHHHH
# ASSAY_INFO: ELISA, LAIR1 ECD coated, mAb titrated, anti-rabbit HRP
REPORTED_ENDPOINT: EC50 (nM)
Record the value in nM, omitting the unit from your answer.

Q: Look at this binder and give its reported EC50. LA-259-2 (antibody, V domains shown, Rabbit monoclonal IgG) VH: QSVKESGGRLVTPGTPLTLTCTASGFSLYKYNIQWVRQAPGKGLEYIGASTYAGYTYYASWAKGRVTISRTSTTVDLKMTSPTTEDTATYFCARHIDGDYSGYALWGPGTLVTISS VL: ELVMTQTPASVSAAVGGTVTIKCQASQSIGTWFAWYQQKPGQSPKLLIYGPSKLASGVPPRFKGSGSGTEFTLTISDLECDDAATYYCQSNGGSISNGWGSFGGGTEVVVK
A: 0.22

Q: Look at this binder and give its reported EC50. LA-30 (antibody, V domains shown, Rabbit monoclonal IgG; also called mAb LA-30) VH: EQSVESGGGLVQPEGSLTLTCKASGFDFSRNAICWVRQAPGKGPEWIACYSFSSSATYYASWAKSRFTISKTSSTTVTLQMTSLTAADTATYFCARVDIYGGSRYWGMWGPGTLVTISS VL: ELVMTQTPASVEAAVGGTVTIKCQASQNIGGDLAWYQQKPGQPPKLLIYRASTLESGVPSRFSGSGSGTEFTLTISDLECADAATYYCQDTDIGSGAFGGGTELEIK
A: 0.07

Q: Look at this binder and give its reported EC50. LA-60 (antibody, V domains shown, Rabbit monoclonal IgG; also called mAb LA-60) VH: EQSLESGGGLVQPEGSLTLTCTASGFSFSNSYYMCWVRQAPGKGLEWIGCIYTGSSSGTYYASWAEGRFTISKTPSTTVTLQMTSLTAADTATYFCSRKLTNFNGAYLDLWGPGTLVTVSS VL: ELVLTQTPASVEAAVGGTVTIKCQASQSIYSYLAWYQQKPGQPPKVLIYKASTLASGVPSRFKGSGSGTEFTLTISDLECADAATYYCQNNNGGSDNTFGGGTEVVVK
A: 0.1
